# credit: ChEMBL document CHEMBL1130474

# tested target: Nitric oxide synthase 1 (Homo sapiens, UniProt P29475)
# Sequence (P29475 whole entry): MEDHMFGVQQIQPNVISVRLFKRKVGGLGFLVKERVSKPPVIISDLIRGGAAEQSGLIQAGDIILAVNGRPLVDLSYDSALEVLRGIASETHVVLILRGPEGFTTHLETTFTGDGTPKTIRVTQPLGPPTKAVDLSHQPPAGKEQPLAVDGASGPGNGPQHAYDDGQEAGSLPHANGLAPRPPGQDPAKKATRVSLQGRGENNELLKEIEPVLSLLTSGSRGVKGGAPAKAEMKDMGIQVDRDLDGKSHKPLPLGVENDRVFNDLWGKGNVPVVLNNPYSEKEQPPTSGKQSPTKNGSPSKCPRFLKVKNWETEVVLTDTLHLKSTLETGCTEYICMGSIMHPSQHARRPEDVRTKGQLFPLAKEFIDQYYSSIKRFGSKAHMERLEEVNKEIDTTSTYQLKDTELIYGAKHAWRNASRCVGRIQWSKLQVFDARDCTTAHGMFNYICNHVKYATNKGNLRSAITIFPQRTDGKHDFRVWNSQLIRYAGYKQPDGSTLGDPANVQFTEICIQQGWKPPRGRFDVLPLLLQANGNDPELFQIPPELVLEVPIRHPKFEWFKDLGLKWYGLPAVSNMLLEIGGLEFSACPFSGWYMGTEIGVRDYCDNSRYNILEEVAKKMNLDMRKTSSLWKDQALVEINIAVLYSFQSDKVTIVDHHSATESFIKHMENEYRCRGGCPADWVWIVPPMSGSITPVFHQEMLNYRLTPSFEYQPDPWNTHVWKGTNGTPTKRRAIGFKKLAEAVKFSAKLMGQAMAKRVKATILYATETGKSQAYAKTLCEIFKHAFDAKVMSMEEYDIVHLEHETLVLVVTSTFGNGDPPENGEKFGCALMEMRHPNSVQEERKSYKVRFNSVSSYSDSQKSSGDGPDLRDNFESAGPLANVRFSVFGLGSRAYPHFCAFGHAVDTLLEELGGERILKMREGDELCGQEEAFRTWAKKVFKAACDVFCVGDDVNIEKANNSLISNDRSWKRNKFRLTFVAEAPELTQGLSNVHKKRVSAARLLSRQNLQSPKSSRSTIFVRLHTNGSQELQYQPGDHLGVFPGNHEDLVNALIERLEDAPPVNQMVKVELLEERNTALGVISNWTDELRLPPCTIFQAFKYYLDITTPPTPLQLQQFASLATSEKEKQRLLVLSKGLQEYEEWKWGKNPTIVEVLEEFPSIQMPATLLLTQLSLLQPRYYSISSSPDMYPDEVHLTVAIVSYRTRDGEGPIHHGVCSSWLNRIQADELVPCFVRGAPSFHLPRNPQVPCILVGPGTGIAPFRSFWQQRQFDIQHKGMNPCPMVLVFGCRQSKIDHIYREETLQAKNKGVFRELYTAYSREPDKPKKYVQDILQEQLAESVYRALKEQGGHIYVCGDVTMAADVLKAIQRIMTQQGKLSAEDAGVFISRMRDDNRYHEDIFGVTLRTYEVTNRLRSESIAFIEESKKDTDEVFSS
reported metric: pKi
Formally, pKi is defined as -log10 of the concentration c, with c in mol/L.

As a guide, the following entries are already answered.
NC(N)=Nc1ccccc1CC(N)C(=O)O (centres undefined) : 6.43
CC(=N)Nc1ccccc1CC(N)C(=O)O (centres undefined) : 5.89
N=C(N)Nc1cccc(CC(N)C(=O)O)c1 (centres undefined) : 4.36

Please turn your attention to the following entry.
In: Requested read-out: pKi. Entry: CC(=N)Nc1cccc(CC(N)C(=O)O)c1 (centres undefined)
Out: 4.54
